system: UISO; assay: qHTS assay to identify novel small-molecules to repurpose for Merkel cell carcinoma treatment (AID 1296009); conditions: MCC and control cell lines, CellTiter-Glo viability, 72 h; series mostly up to 46 µM; note: nearly all actives have a fitted effect of over 60% in size
Inconclusive results are not listed. Active and inactive are the calls of the source. Calls come from the whole dose curve; as a rule, active = well fitted inhibition curve with a large enough effect; inconclusive = small, poorly fitted or top-dose-only effect; inactive = flat fitted curve, though single readings scatter.
Give one outcome, nothing more. List: active, inactive

INPUT: How was COC(=O)c1nc(Cl)c(Cl)nc1N classified in this test?
OUTPUT: active

INPUT: How was CCCCCCCCCCCCCCCC(=O)OC(C)C classified in this test?
OUTPUT: inactive

INPUT: How was CO[C@@]1(NC(=O)Cc2cccs2)C(=O)N2C(C(=O)O)=C(COC(N)=O)CS[C@@H]21 classified in this test?
OUTPUT: inactive

INPUT: How was O=C(O)Cc1ccc(-c2ccccc2)cc1 classified in this test?
OUTPUT: inactive

INPUT: How was Nc1c(CC(=O)O)cccc1C(=O)c1ccc(Br)cc1 classified in this test?
OUTPUT: inactive

INPUT: How was Nc1ccc(C(=O)O)c(O)c1 classified in this test?
OUTPUT: inactive

INPUT: How was O=C(O)/C=C\C(=O)O classified in this test?
OUTPUT: inactive

INPUT: How was CNC(=O)c1c(I)c(NC(=O)CCCCC(=O)Nc2c(I)c(C(=O)O)c(I)c(C(=O)NC)c2I)c(I)c(C(=O)O)c1I classified in this test?
OUTPUT: inactive

INPUT: How was Cc1c(Nc2ncccc2C(=O)O)cccc1C(F)(F)F classified in this test?
OUTPUT: inactive

INPUT: How was c1ccc2sc(SSc3nc4ccccc4s3)nc2c1 classified in this test?
OUTPUT: inactive

INPUT: How was Cc1ccc(C(=O)c2ccc(CC(=O)O)n2C)cc1 classified in this test?
OUTPUT: inactive

INPUT: How was [O-][n+]1ccccc1SSc1cccc[n+]1[O-] classified in this test?
OUTPUT: active

---

target: D(1A) dopamine receptor (Homo sapiens) (UniProt P21728); experiment: HTS Assay for Allosteric Agonists of the Human D1 Dopamine Receptor: Primary Screen for Potentiators (AID 488982); details: HEK293 T-REx D1 inducible cells, calcium flux, kinetic fluorescence; series mostly up to 8.37 µM
Sequence (P21728 whole entry, looked up): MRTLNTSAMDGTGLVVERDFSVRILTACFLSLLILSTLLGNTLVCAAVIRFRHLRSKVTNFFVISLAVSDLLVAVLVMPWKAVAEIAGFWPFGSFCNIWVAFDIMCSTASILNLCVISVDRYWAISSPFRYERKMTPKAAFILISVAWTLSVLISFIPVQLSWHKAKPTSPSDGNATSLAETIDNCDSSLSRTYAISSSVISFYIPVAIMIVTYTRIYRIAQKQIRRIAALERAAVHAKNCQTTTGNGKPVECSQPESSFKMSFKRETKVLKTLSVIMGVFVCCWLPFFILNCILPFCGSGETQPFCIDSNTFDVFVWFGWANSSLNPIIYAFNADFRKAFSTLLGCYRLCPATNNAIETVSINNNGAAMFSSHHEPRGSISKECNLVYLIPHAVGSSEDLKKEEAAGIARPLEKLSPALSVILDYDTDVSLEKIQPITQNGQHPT
Inconclusive results are not listed. Activity calls are given as the source filed them. Calls come from the whole dose curve; as a rule, active = well fitted activation curve with a large enough effect; inconclusive = small, poorly fitted or top-dose-only effect; inactive = no such curve, though single readings can be large or run the other way.
Give one outcome, nothing more. List: true (1) = active, false (0) = inactive

INPUT: How was O=C(/C=C/c1ccc(O)c(O)c1)OCCc1ccccc1 classified in this test?
OUTPUT: false (0)

INPUT: How was Cn1ncc(S(=O)(=O)Cc2ccccc2)c(Br)c1=O classified in this test?
OUTPUT: false (0)

INPUT: How was OC[C@H]1O[C@@H](n2cnc3c(NC4CCCC4)ncnc32)[C@H](O)[C@@H]1O classified in this test?
OUTPUT: false (0)

INPUT: How was c1cnc2c(c1)ccc1cccnc12 classified in this test?
OUTPUT: false (0)

INPUT: How was CC(C)NC[C@H](O)COc1cccc2[nH]ccc12 classified in this test?
OUTPUT: false (0)

INPUT: How was CN1CCc2cccc3c2C1Cc1ccc(O)c(O)c1-3 (stereo not drawn) classified in this test?
OUTPUT: false (0)

INPUT: How was C=CC(C)=C[C@@]1(C)SC(=O)C(C)=C1O classified in this test?
OUTPUT: false (0)

INPUT: How was O=C1/C(=C/c2ccsc2)CC/C1=C\c1cccs1 classified in this test?
OUTPUT: false (0)

INPUT: How was N#C/C(=C\c1ccc(-c2cc(Cl)ccc2Cl)o1)C(=O)Nc1cccc2ncccc12 classified in this test?
OUTPUT: false (0)

INPUT: How was N#C/C(=C\c1ccc(O)c(O)c1)C(=O)NCc1ccccc1 classified in this test?
OUTPUT: false (0)

INPUT: How was CCCCCCCCCCCCCCCC(=O)OC(CC(=O)O)C[N+](C)(C)C (stereo not drawn) classified in this test?
OUTPUT: false (0)

INPUT: How was O=C1NC(=O)/C(=C/c2ccc3nccnc3c2)S1 classified in this test?
OUTPUT: false (0)

INPUT: How was NCCNC(=O)c1ncsc1-c1cccc(F)c1 classified in this test?
OUTPUT: false (0)

INPUT: How was O=c1[nH]c2cc(Cl)c(Cl)cc2[nH]c1=O classified in this test?
OUTPUT: false (0)

INPUT: How was C[N+](C)(CCCCCC[N+](C)(C)CCCN1C(=O)c2cccc3cccc(c23)C1=O)CCCN1C(=O)c2cccc3cccc(c23)C1=O classified in this test?
OUTPUT: false (0)

INPUT: How was O=C(Nc1ccccc1)c1cc([N+](=O)[O-])ccc1Cl classified in this test?
OUTPUT: false (0)

INPUT: How was CNC(=O)[C@H]1O[C@@H](n2cnc3c(NCc4ccc(N)cc4)ncnc32)[C@H](O)[C@@H]1O classified in this test?
OUTPUT: false (0)

INPUT: How was Cc1cc(NC(=O)Nc2ccc3c(ccn3C)c2)sn1 classified in this test?
OUTPUT: false (0)

INPUT: How was CCCCC/C=C\CC(O)/C=C/c1cccc(CC(O)CCCCO)n1 (stereo not drawn) classified in this test?
OUTPUT: false (0)

INPUT: How was Oc1cc(O)cc(/C=C/c2ccc(O)c(O)c2)c1 classified in this test?
OUTPUT: true (1)

INPUT: How was O=C(c1ccc(Cl)cc1)N1CCN(c2ccc([N+](=O)[O-])c3ncccc23)CC1 classified in this test?
OUTPUT: false (0)

INPUT: How was C[N+]1(C)C2CC(OC(=O)[C@H](CO)c3ccccc3)CC1C1OC12 (stereo partly drawn) classified in this test?
OUTPUT: false (0)

INPUT: How was CN1CC(=O)N/C1=N/C(=O)Nc1cccc(Cl)c1 classified in this test?
OUTPUT: false (0)

---

experiment: qHTS for differential inhibitors of proliferation of Plasmodium falciparum line HB3 (AID 1886); conditions: Plasmodium falciparum HB3 proliferation inhibition; series mostly up to 28.7 µM;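 note: parasites grown with compound for 72 h before SYBR Green readout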
Records with an inconclusive call do not appear. Active and inactive are the calls of the source. Calls follow the shape of the dose curve; as a rule, active = well fitted curve in the direction sought with a large enough effect; inconclusive = small, poorly fitted or top-dose-only effect, or another doubt; inactive = no such curve, though single readings can be large or run the other way.
Give one outcome, nothing more. List: active, inactive

INPUT: How was CN(C)c1ccc(/C=C2\C(=O)Nc3ccccc32)cc1 classified in this test?
OUTPUT: active

INPUT: How was CCCCCCCCCCCCCCCC(=O)NCC(COP(=O)([O-])OCC[N+](C)(C)C)OCC (configuration not stated) classified in this test?
OUTPUT: inactive

INPUT: How was CCCCN1CCC(n2c(=O)[nH]c3ccccc32)CC1 classified in this test?
OUTPUT: inactive

INPUT: How was NCCCCC(=O)O classified in this test?
OUTPUT: inactive

INPUT: How was c1ccc(-c2ccccn2)nc1 classified in this test?
OUTPUT: inactive

INPUT: How was COc1ccc(NC(=O)/C=C/c2ccc(Cl)cc2)cc1 classified in this test?
OUTPUT: active

INPUT: How was O=C(O)[C@@H]1C[C@H](C(=O)O)N1 classified in this test?
OUTPUT: inactive

INPUT: How was CN(C)c1nc(N)c(C(=O)N=C(N)N)nc1Cl classified in this test?
OUTPUT: active

INPUT: How was O=C(O)CC[C@@H](C(=O)O)N1C(=O)c2ccccc2C1=O classified in this test?
OUTPUT: inactive

INPUT: How was CCCCCC(O)c1cccc(OCc2ccc3ccccc3n2)c1 (configuration not stated) classified in this test?
OUTPUT: active

INPUT: How was O=Nc1ccc2oc(=O)ccc2c1 classified in this test?
OUTPUT: active

INPUT: How was C#CCN1C(C)=C(C(=O)OC)C(c2cccc([N+](=O)[O-])c2)C(C(=O)OCC)=C1C (configuration not stated) classified in this test?
OUTPUT: active

---

Assay: qHTS of pediatric cancer cell lines to identify multiple opportunities for drug repurposing: Primary screen for OHS-50 cells (AID 1347103); note: nearly all actives have a fitted effect of over 40% in size; note: potency is the fitted concentration of half-maximal effect
Conditions: OHS-50 osteosarcoma viability, CellTiter-Glo luminescence, 48 h; series mostly up to 57.3 µM
Procedure: Drug repurposing or repositioning has been offered as a strategy for drug development in oncology programs. […] [1] Shen, M et al. Quantitative high-throughput phenotypic screening of pediatric cancer cell lines identifies multiple opportunities for drug repurposing. […] Cells were assayed in growth media at a density of 500-1,000 cells/well. […] After a 15 min incubation at room temperature, samples were analyzed for luminescence intensity using a ViewLux High-throughput CCD imager equipped with clear filters.
Inconclusive results are not listed. Calls of active or inactive are those of the source. Calls follow the shape of the dose curve; as a rule, active = well fitted cell-killing curve with a large enough effect; inconclusive = small, poorly fitted or top-dose-only effect; inactive = no such curve, though single readings can be large or run the other way.
reported-property: Potency

INPUT: Requested read-out: Potency. Entry: Cc1c(N)c(=O)n(-c2ccccc2)n1C
OUTPUT: inactive

INPUT: Requested read-out: Potency. Entry: Nc1cc(-c2ccncc2)c[nH]c1=O
OUTPUT: inactive

INPUT: Requested read-out: Potency. Entry: COC(=O)c1nc(Cl)c(Cl)nc1N
OUTPUT: 0.872 µM (active)

INPUT: Requested read-out: Potency. Entry: C/C(=N\O)c1ccc(OCC(=O)N2CCCCC2)cc1
OUTPUT: inactive

INPUT: Requested read-out: Potency. Entry: Nc1ccc(O)c(C(=O)O)c1
OUTPUT: inactive

INPUT: Requested read-out: Potency. Entry: N=C1N=C(N)c2cc3ccccc3cc21
OUTPUT: 17.8 µM (active)

INPUT: Requested read-out: Potency. Entry: c1ccc2sc(SN3CCOCC3)nc2c1
OUTPUT: inactive

INPUT: Requested read-out: Potency. Entry: CN1CC(=O)N/C1=N/C(=O)Nc1cccc(Cl)c1
OUTPUT: inactive

INPUT: Requested read-out: Potency. Entry: CC(C)OC(=O)c1cc(C(=O)OC(C)C)cc([N+](=O)[O-])c1
OUTPUT: inactive

INPUT: Requested read-out: Potency. Entry: Cc1ccc(O)c(-n2nc3ccccc3n2)c1
OUTPUT: inactive

More entries:
INPUT: Requested read-out: Potency. Entry: CC(C(=O)O)c1ccc2c(c1)[nH]c1ccc(Cl)cc12 (stereo not drawn)
OUTPUT: inactive

INPUT: Requested read-out: Potency. Entry: CCCCC1C(=O)N(c2ccccc2)N(c2ccc(O)cc2)C1=O (stereo not drawn)
OUTPUT: 11 µM (active)

INPUT: Requested read-out: Potency. Entry: Nc1nc2ccc([N+](=O)[O-])cc2s1
OUTPUT: 25.2 µM (active)

Recorded values, source PubChem BioAssay (NCATS).
